- TEST_SYSTEM: TYK2 (Homo sapiens, UniProt P29597)
- Sequence (P29597 whole entry): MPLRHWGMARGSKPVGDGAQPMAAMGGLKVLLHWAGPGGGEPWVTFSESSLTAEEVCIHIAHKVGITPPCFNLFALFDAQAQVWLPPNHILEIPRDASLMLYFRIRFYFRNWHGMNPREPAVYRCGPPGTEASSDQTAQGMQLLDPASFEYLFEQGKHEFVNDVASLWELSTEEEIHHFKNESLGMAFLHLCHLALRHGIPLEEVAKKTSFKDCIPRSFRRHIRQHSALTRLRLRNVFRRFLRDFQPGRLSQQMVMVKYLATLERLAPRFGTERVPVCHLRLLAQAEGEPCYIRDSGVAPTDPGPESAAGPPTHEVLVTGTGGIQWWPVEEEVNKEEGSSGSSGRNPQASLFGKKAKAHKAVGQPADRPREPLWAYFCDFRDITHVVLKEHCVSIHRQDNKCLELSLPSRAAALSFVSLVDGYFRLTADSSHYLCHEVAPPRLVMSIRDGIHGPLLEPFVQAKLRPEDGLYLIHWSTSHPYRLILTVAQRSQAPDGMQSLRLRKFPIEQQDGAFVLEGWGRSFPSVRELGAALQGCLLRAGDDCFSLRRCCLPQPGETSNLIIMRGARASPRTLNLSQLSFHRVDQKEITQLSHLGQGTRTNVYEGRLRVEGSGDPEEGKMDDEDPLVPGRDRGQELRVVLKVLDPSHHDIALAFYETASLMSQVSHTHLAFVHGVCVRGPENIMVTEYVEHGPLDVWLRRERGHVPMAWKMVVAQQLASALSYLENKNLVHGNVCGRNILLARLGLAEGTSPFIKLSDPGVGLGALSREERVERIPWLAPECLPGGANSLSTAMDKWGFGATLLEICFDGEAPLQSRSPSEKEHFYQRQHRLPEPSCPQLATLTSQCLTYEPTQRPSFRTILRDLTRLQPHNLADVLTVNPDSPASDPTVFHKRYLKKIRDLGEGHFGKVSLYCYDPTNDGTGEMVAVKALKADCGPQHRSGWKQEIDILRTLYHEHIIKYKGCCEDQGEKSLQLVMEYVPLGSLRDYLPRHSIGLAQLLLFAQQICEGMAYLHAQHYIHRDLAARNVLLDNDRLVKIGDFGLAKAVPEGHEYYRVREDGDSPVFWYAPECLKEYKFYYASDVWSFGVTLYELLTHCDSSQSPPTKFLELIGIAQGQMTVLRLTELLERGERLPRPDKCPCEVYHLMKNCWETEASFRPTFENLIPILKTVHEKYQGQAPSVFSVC
- PROCEDURE_DETAILS: TYK2 kinase inhibition (Table A1)
- Assay type: biochemical
- APPLIED_CONDITIONS: Table B1
Where a name gives a salt, the structure may show the parent alone.
ATTRIBUTE_MEASURED: IC50 (nM)
The response must be a number in nM with no trailing unit.

q: Read off the recorded IC50 for O=C(Nc1ccc2cc1CCc1cccc(c1)Nc1ncc(Cl)c(n1)N2)Nc1cccc2c1CCCC2 [Example B109, trifluoroacetate]
a: 72

q: Read off the recorded IC50 for N#Cc1ccccc1N1CCN(C(=O)Nc2ccc3cc2CCc2cncc(c2)Nc2ncc(Cl)c(n2)N3)CC1 [Example B300, tris(trifluoroacetate)]
a: 27

Data credit: patent US8871753B2
